- Target: Streptokinase A (Streptococcus pyogenes serotype M1, UniProt P10520)
- Sequence (P10520 whole entry): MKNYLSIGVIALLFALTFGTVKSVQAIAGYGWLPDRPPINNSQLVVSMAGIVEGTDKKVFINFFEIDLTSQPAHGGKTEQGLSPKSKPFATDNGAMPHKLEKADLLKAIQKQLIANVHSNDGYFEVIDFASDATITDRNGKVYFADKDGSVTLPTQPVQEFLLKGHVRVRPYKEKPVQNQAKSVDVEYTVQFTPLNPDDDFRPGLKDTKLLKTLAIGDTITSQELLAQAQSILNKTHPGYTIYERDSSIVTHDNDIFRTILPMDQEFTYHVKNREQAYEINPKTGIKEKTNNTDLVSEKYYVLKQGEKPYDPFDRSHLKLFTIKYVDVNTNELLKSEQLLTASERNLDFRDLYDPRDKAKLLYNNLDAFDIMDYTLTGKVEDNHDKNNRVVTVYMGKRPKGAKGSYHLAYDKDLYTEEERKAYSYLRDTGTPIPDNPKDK
- Assay: viability-normalized secreted streptokinase activity reduction – plasminogen activation absorbance, OD405, dose response (AID 1914);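 also: secreted streptokinase activity via plasminogen activation per viability signal from cell pellet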
- Format: functional, Streptococcus pyogenes M1 GAS
Activity calls are given as the source filed them.
Measurement kind: EC50

- CCOC(=O)c1sc(NC(=O)Nc2ccc(Cl)cc2)cc1C: 26.1 µM (inconclusive)
- Cc1cccc(Cn2nc(C(C)(C)C)cc2C(=O)Nc2ccc(F)cc2)c1: 1.9 µM (active)
- CCc1cccc2sc(N3CCN(C(=O)c4ccc([N+](=O)[O-])o4)CC3)nc12: 2.38 µM (active)
- COC(=O)C1CN(C#N)N(c2ccc(Cl)cc2)C12c1ccccc1-c1ccccc12 (stereo not given): 0.744 µM (active)
- CCCCCn1cc[n+](C2=C([N-]S(=O)(=O)c3ccccc3)C(=O)c3ccccc3C2=O)c1: 3.69 µM (active)
- Cc1cccc(C)c1OCC(O)CN1CCC(CN2C(=O)c3cccc4cccc(c34)C2=O)CC1 (stereo not given): 38.2 µM (active)
- CNC(=O)/C(C#N)=C\c1cc(C)n(-c2ccc(N3CCOCC3)cc2)c1C: > 150 µM (not active)
- COc1ccc(Cn2c(SCc3ccc(C)cc3)nc3cc(OC)c(OC)cc3c2=N)cc1Cl: 5.92 µM (active)
- Cc1ccc(Cn2ccc(=O)c(OCc3c(Cl)cccc3Cl)c2C)cc1: 13.7 µM (active)
- Clc1ccc(-n2c(-c3cccc(Br)c3)nc3nc4ccccc4nc32)cc1: > 150 µM (not active)

---

- Target: 72 kDa type IV collagenase (Homo sapiens, UniProt P08253)
- Sequence (P08253 whole entry): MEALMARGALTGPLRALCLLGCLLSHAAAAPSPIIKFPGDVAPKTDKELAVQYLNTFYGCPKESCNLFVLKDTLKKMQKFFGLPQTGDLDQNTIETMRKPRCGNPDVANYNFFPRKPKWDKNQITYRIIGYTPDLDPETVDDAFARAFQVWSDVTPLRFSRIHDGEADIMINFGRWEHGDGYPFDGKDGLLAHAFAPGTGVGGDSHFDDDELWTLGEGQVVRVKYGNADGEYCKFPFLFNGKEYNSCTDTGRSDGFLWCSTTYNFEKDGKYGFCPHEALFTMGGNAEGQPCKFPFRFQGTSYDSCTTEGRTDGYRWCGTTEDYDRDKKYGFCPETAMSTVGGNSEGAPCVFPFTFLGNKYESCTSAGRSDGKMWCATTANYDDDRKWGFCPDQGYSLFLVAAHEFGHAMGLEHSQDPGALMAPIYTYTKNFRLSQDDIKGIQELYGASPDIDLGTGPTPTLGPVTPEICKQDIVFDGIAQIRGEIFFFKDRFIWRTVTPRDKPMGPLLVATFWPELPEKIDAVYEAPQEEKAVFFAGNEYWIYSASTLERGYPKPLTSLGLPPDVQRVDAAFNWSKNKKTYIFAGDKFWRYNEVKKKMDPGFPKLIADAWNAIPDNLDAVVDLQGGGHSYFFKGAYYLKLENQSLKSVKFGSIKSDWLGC
- Assay: Dose Response validation of uHTS RPN11 inhibitor hits using a MMP-2 Fluorescence assay.
- Assay type: functional
The source made the active and inactive calls.
Outcome codes: TRUE (active), FALSE (inactive)

- CC1=CC2=NC(=O)/C(=C\c3c(C)[nH]c4ccc(C)cc34)C(=N)N2O1: FALSE
- Cc1ccc(NC(=O)C(C)SCc2nc(O)c3c4c(sc3n2)CCCC4)nc1 (centres undefined): FALSE
- Cc1occc1C(=O)/C(C#N)=C/c1ccc(O)c(Br)c1: FALSE
- Cc1cc(/C=C2\SC(=S)NC2=O)c(C)n1C: TRUE

---

- Assay: reduction of Shn3 3'UTR-driven luciferase in osteoblasts – cell-based, Clone20 osteoblasts, firefly luciferase, cherry-picked, dose response (AID 624132);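 also: firefly luciferase luminescence from reporter carrying the Shn3 3'UTR in osteoblasts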
- Format: functional
Active and inactive are the calls of the source.
Measurement kind: AC50

* C=CCOc1nc2c(c(=O)n(C)c(=O)n2C)n1Cc1ccc(Cl)cc1Cl | 2150 nM (active)
* CCOC(=O)c1cnc(-n2nc(C)cc2C)nc1NNc1cc(C)nc(-c2ccccc2)n1 | 3310 nM (active)
* CC(=O)c1cn(CCOc2cc(C)ccc2C)c2ccccc12 | 1180 nM (active)
* O=C(Nc1nc(-c2ccccn2)cs1)c1ccccc1-n1cnnn1 | 1710 nM (active)
* COC(=O)C1=C(c2ccc(OCc3ccccc3)cc2)C[C@@H]2CC[C@H]1N2C(=O)NCc1ccc(OC)c(OC)c1 | 19700 nM (active)

---

- Target: Sentrin-specific protease 8 (Homo sapiens, UniProt Q96LD8);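 also: luminescence read-out of SENP8 inhibition, dose-response confirmation following an ultra-high-throughput screen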
- Sequence (Q96LD8 whole entry): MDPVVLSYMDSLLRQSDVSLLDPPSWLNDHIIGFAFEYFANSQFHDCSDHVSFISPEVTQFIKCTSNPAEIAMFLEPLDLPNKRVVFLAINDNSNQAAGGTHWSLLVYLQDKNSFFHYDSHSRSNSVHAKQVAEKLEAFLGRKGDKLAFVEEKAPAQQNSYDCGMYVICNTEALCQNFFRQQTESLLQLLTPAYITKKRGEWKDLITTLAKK
- Assay type: functional
Active and inactive are the calls of the source.
Outcome codes: y for active, n for inactive

- CN(C)S(=O)(=O)Oc1cccc(C(=O)Nc2ccc(Cl)c(Cl)c2)c1: y
- CCOC(=O)c1ccc(NC(=O)c2cc3ccccc3o2)cc1: n
- COc1c(O)ccc(/C=C(\C#N)c2nc3ccccc3[nH]2)c1[N+](=O)[O-]: y
- Cc1ccc2[nH]c(/C(C#N)=C/c3ccc(O)c(O)c3)nc2c1: y

---

- Target: Carboxy-terminal domain RNA polymerase II polypeptide A small phosphatase 1 (Homo sapiens)
- Sequence (Q9GZU7 whole entry, the tested form may be a part): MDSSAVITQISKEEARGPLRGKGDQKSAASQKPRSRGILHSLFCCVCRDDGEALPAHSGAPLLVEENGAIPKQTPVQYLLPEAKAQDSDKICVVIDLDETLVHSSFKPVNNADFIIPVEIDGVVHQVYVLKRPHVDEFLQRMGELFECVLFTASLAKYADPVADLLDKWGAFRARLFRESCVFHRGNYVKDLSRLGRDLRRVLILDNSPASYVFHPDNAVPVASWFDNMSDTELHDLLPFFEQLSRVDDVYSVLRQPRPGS
- Assay: CTDSP1 inhibitors, concentration-response, biochemical, absorbance readout, ultra-high-throughput screen actives (AID 540297)
- Format: functional
Activity calls are given as the source filed them.
Listing of entries alongside the reported IC50.
Measurement kind: IC50

- C=CCn1cnc2c(c1=O)c1nc3ccccc3nc1n2/N=C/c1cccc(OC)c1OC: 10.1 µM (active)
- CC(/C=C/c1ccco1)=N\NC(=O)c1cc(Cl)ccc1O: 10.7 µM (active)
- CCOc1ccccc1NC(=O)N1CCC(NC(=O)c2cccc(C)c2)CC1: 18.8 µM (active)
- COc1ccc(C(=O)NCC(=O)Nc2ccc(-c3ccccc3)cc2)cc1: 5.62 µM (active)
- Cc1ccc(OCC(=O)NNC(=O)Cn2nnc(-c3ccccc3)n2)cc1: 12.7 µM (active)

---

- Assay: viability of PTEN-deleted HCT116 cells – cell-based, HCT116 PTEN knockout, dose response (AID 1047);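 also: HCT116 colon tumor cells with PTEN knocked out; cells exposed to compound for 60 hours before readout; potency for loss of cell viability measured by luminescence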
- Format: functional
Calls of active or inactive are those of the source.
Measurement kind: EC50

* CN1c2ccccc2C(C)(C)C12C=Cc1cc(O)ccc1O2 (centres undefined) | 36.4 µM (active)
* CC(C)Cc1nc2sc3c(NCc4ccco4)ncnc3c2c2c1COC(C)(C)C2 | 14.3 µM (active)
* COc1cc(/C=C(\C#N)C(=O)NC2CCCCC2C)ccc1OS(=O)(=O)c1ccc(C)cc1 (centres undefined) | 10.7 µM (active)
* Cc1cccc(C)c1OCC(O)CN1CCC(CN2C(=O)c3cccc4cccc(c34)C2=O)CC1 (centres undefined) | 11.7 µM (active)

---

- Target: Histone-lysine N-methyltransferase NSD2 (Homo sapiens, UniProt O96028)
- Sequence (O96028 whole entry): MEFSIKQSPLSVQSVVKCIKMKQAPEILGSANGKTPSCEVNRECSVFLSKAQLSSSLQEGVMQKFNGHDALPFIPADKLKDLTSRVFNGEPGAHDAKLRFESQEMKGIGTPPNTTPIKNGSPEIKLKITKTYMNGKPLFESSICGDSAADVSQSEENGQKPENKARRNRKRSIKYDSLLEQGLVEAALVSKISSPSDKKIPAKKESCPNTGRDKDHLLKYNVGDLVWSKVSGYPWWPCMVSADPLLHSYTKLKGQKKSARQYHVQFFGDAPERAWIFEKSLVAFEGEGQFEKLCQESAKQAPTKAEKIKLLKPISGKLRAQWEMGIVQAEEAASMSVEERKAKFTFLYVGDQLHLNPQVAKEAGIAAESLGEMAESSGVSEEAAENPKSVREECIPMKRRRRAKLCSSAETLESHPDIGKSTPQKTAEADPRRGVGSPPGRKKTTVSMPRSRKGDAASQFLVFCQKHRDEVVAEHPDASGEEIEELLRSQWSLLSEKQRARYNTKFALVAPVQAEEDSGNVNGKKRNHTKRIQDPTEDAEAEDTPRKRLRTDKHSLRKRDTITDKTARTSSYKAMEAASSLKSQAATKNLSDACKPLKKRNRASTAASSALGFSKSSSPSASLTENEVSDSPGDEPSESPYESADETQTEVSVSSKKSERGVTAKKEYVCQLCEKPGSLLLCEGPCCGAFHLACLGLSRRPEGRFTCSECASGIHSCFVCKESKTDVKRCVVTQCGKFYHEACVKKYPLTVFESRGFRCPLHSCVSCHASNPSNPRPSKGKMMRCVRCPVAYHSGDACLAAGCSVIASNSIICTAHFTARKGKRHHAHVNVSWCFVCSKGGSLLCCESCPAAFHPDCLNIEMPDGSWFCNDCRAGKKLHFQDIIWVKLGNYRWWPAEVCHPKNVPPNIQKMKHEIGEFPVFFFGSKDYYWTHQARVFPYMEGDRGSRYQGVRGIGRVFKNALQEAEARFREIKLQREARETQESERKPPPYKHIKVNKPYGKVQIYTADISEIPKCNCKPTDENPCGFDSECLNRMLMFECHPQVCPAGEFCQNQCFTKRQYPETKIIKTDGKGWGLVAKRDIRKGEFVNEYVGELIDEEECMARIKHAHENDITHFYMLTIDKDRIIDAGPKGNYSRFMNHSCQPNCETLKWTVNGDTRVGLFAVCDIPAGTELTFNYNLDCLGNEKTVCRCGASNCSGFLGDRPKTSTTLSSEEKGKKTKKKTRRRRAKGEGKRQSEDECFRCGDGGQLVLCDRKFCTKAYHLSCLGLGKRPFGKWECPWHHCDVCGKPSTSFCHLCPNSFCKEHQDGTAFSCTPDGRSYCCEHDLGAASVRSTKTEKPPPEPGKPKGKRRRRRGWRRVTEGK
- Assay type: biochemical
The source made the active and inactive calls.
Outcome codes: active, inactive

• CCN(CC)CCNC(=O)/C(=C\c1cccn1C)NC(=O)c1cccs1 = inactive
• Cc1cc(/C=C(/C#N)c2nc3ccccc3[nH]2)c(C)n1-c1cc(C(=O)O)cc(C(=O)O)c1 = inactive
• O=C(CSc1nc2nn(-c3ccccc3)c(=O)c-2c2n1CCCCC2)c1ccc(O)c(O)c1 = active
• CN(C)c1ccc(/C=C2/C[N+](C)(C)C/C(=C/c3ccc(N(C)C)cc3)C2=O)cc1 = active
• Cc1ccc2[nH]c(/C(C#N)=C/c3ccc(O)c(O)c3)nc2c1 = active
• COc1ccc(C(=O)Oc2ccc(/C=N/Nc3ccc(Cl)c(C(=O)O)c3)cc2OC)cc1 = inactive
• CCOc1ccccc1N1CCN(C/C=C/c2ccc(N(C)C)cc2)CC1 = active
• C=CCn1c(SCC(=O)c2ccc(O)c(O)c2)nnc1-c1cccnc1 = active
• O=C1c2cc(O)c(O)cc2OC(c2ccc(O)c(O)c2)C1O (centres undefined) = active
